molecular target: T1, Human EphA2 (Ecto), C-terminal polyHis (Human, UniProt P29317 24-537); assay: FP competition vs Reference Compound C
T1 construct: extracellular domain; R&D systems 3035-A2 or in-house
T1 sequence (P29317 24-537): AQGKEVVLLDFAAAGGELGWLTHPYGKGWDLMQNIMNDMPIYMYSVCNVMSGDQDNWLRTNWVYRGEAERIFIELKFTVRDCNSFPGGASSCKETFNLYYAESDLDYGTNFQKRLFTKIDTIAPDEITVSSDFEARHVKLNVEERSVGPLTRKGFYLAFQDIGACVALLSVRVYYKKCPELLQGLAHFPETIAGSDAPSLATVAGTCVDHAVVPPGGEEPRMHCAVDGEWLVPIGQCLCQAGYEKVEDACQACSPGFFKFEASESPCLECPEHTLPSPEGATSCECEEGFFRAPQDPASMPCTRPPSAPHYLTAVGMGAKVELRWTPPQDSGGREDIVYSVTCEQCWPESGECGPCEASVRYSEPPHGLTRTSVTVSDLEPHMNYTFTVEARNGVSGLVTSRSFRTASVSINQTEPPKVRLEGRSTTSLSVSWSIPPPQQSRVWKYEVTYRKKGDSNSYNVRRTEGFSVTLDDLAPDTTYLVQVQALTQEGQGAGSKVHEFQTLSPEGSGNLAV
*1 amine or outer side, *2 acyl side, *3 side chain or, on linkers, in order; H or OH if unused. Bridges are numbered along the chain shown (N, C = ends). Where no end group is shown, it is not given here. [ ]: non-standard residue; d: D form. TATA = O=C(CC[*:1])N1CN(C(=O)CC[*:2])CN(C(=O)CC[*:3])C1; 2Nal = N[C@@H](Cc1ccc2ccccc2c1)C(=O)O
Exam item: assign Condition met to entries whose Ki is below 200 nM and Condition not met to entries at or above 200 nM. Note that a value of exactly 200 nM receives Condition not met.

• ACTSCWAYPDSFCA (linker 2-5-13 via TATA; not fully specified (C-terminus)) [Compound 32] = Condition not met
• CPLVNPLCLHPGWSCRGQ (N-terminal Ac; C-terminal -Sar6-(D-K); TATA scaffold on the 3 Cys, also called Compound 91) [BCY6042] = Condition met
• ACTKPTGFCAYPDTICA (linker 2-9-16 via TATA; not fully specified (C-terminus)) [Compound 33] = Condition not met
• ACPMVNPLCLHPGWICA (linker 2-9-16 via TATA; not fully specified (C-terminus)) [Compound 53] = Condition met
• ACSSCWAYPDSVCA (linker 2-5-13 via TATA; not fully specified (C-terminus)) [Compound 38] = Condition not met
• DLRCGGDPRCAYMNVCA (linker 4-10-16 via TATA) [Compound 18] = Condition met
• ACGFMGLEPCEMVCA (linker 2-10-14 via TATA; not fully specified (C-terminus)) [Compound 42] = Condition not met
• ACPLVNPLCLMTGWSCA (linker 2-9-16 via TATA; not fully specified (C-terminus)) [Compound 61] = Condition not met
• ACPLVNPLCLMPGWGCA (linker 2-9-16 via TATA; not fully specified (C-terminus)) [Compound 59] = Condition met
• ACGFMGLEPCVTYCA (linker 2-10-14 via TATA; not fully specified (C-terminus)) [Compound 43] = Condition not met
• ACPLVNPLCLHPGWSCXGQ (not fully specified; N-terminal (β-Ala)-Sar10; HArg; TATA scaffold on the 3 Cys) [Compound 90] = Condition met
• ACQSCWAYPDTYCA (linker 2-5-13 via TATA; not fully specified (C-terminus)) [Compound 39] = Condition not met
• ACPLVNPLCLTSGWKCA (linker 2-9-16 via TATA; not fully specified (C-terminus)) [Compound 52] = Condition met
• ACVPDRRCAFQDVCDHE (linker 2-8-14 via TATA; not fully specified (C-terminus)) [Compound 27] = Condition met
• ACPLVNPLCLHPGWTCLXG (not fully specified; N-terminal (β-Ala)-Sar10; D-His; TATA scaffold on the 3 Cys) [Compound 76] = Condition met
• ACPLVNPLCLHPG[2Nal]TCLHG (linker 2-9-16 via TATA; not fully specified (C-terminus); printed as ACPLVNPLCLHPG(2Nal)TCLHG) [Compound 79] = Condition met
• ACPLVNPLCLHPGWTCA (linker 2-9-16 via TATA; not fully specified (C-terminus)) [Compound 64] = Condition met
• ACSPTPACAVQNLCA (linker 2-8-14 via TATA; not fully specified (C-terminus)) [Compound 31] = Condition not met
• Ac-ARDCPLVNPLCLHPGWTCA (linker 4-11-18 via TATA; not fully specified (C-terminus); printed as Ac-ARDCPLVNPLCLHPGWTCA-Sar6-(D-K)) [Compound 68] = Condition met
• ACPLVNPLCLLDGWTCA (linker 2-9-16 via TATA; not fully specified (C-terminus)) [Compound 58] = Condition met
